- target.system: IRAK4 (Homo sapiens)
- Construct: endogenous in cells; host or cells: OCI-LY10
- Sequence (Q9NWZ3 whole entry): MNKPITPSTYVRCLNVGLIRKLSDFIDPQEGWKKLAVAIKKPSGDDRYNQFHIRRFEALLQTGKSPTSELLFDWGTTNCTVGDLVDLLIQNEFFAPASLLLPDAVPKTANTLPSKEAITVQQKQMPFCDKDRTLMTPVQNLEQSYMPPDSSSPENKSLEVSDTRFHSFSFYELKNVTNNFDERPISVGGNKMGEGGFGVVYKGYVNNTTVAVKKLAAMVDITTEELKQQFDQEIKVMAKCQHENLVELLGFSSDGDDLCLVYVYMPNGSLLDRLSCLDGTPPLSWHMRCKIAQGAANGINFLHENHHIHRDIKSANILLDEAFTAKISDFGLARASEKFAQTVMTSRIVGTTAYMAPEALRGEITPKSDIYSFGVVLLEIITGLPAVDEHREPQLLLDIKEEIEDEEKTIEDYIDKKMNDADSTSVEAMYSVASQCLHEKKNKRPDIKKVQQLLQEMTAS
- experiment.summary: IRAK4 MSD degradation in OCI-LY10
- Assay type: cell-based
- applied.conditions: OCI-LY10 cells, 24 hrs, Meso Scale Discovery
parameter.measured: DC50

Worked cases, answers included:
{"columns": ["compound", "parameter.measured", "measured"],
 "data": [
  ["O=C1CCC(c2ccc(N3CC(CO[C@@H]4CCN(C[C@H]5CC[C@H](n6cc(NC(=O)c7cnn8ccc(N9C[C@H]%10C[C@@H]9CO%10)nc78)c(C(F)F)n6)CC5)C[C@@H]4F)C3)cc2Cl)C(=O)N1 (stereo partly shown) [I-38]", "DC50", "< 10 nM"],
  ["CN(C[C@H]1CC[C@H](c2nc3cc(C(C)(C)O)c(NC(=O)c4cncc(C(F)(F)F)n4)cc3s2)CC1)[C@@H]1CCN(c2cccc3c2n(C)c(=O)n3C2CCC(=O)NC2=O)C[C@@H]1F (single isomer, unassigned) [I-309]", "DC50", "< 10 nM"],
  ["COc1cc2nc([C@H]3CC[C@H](CN4CC[C@@H](c5cccc6c5n(C)c(=O)n6C5CCC(=O)NC5=O)C(F)(F)C4)CC3)sc2cc1NC(=O)c1cncc(C#N)c1 (single isomer, unassigned) [I-273]", "DC50", "> 200 nM"],
  ["Cn1c(=O)n(C2CCC(=O)NC2=O)c2cccc([C@@H]3CCN(C[C@H]4CC[C@H](c5nc6cc(C(C)(C)O)c(NC(=O)c7cncc(C(F)(F)F)n7)cc6o5)CC4)C[C@H]3F)c21 (stereo partly shown) [I-288]", "DC50", "< 10 nM"],
  ["Cn1c(=O)n([C@H]2CCC(=O)NC2=O)c2cccc(N3CCC4(CCN(C[C@H]5CC[C@H](n6cc7cc(NC(=O)c8cncc(C#N)c8)c(C(C)(C)O)cc7n6)CC5)CC4(F)F)CC3)c21 (single isomer, unassigned) [I-225]", "DC50", "< 10 nM"]
]}

Hi! Can you tell me DC50 for each of these compounds?
1. CN(C[C@H]1CC[C@H](c2nc3cc(C(C)(C)O)c(NC(=O)c4cncc(C(F)(F)F)n4)cc3o2)CC1)[C@@H]1CCN(c2cccc3c2n(C)c(=O)n3C2CCC(=O)NC2=O)C[C@H]1F (single isomer, unassigned) [I-297]
2. Cn1c(=O)n([C@@H]2CCC(=O)NC2=O)c2cccc([C@@H]3CCN(C[C@H]4CC[C@H](n5cc6cc(NC(=O)c7cncc(C(F)(F)F)n7)ccc6n5)CC4)CC3(F)F)c21 (single isomer, unassigned) [I-381]
3. Cn1c(=O)n(C2CCC(=O)NC2=O)c2cccc([C@@H]3CCN(C[C@H]4CC[C@H](c5nc6cc(C(C)(C)O)c(NC(=O)c7cccc(C(F)(F)F)n7)cc6o5)CC4)C[C@H]3F)c21 (stereo partly shown) [I-167]

["10 to 100 nM", "< 10 nM", "< 10 nM"]

Each compound below has a recorded value; state its DC50.
1. Cn1c(=O)n(C2CCC(=O)NC2=O)c2cccc([C@@H]3CCN(C[C@H]4CC[C@H](c5cc6cc(NC(=O)c7cncc(C(F)(F)F)n7)ccn6n5)CC4)C[C@H]3F)c21 (stereo partly shown) [I-194]
2. CN(C[C@H]1CC[C@H](n2cc(NC(=O)c3cnn4ccc(N5CCCC5)nc34)c(C(F)F)n2)CC1)[C@H]1CCN(c2cccc3c2n(C)c(=O)n3C2CCC(=O)NC2=O)C[C@@H]1F (stereo partly shown) [I-22]

1. < 10 nM
2. < 10 nM
